Test: Rat in vivo pharmacokinetics study after oral administration of product A, B or C
Design: species or system Male Sprague-Dawley (SD) rats
Conditions: male, Sprague-Dawley, rat, plasma, po, 10 mL·kg^−1, rats, oral product B, 10 mL·kg^−1
Description: Product A (extract mixed with FLJ extract and water, (1∶1, v / v )), product B (extract mixed with FF extract and water, (1∶1, v / v )) and product C (extract mixed with FLJ and FF extracts, (1∶1, v / v )) were given to oral administration to rats, respectively. Male SD rats (∼250 g) were kept in an environmentally controlled breeding room (temperature: 20±2°C, relative humidity: 60±5%) for 1 week. […]
// reported MRT per item
All answers are understood in h, so give the number only.

stdin: Please give the measured MRT for this compound: O=c1c(O[C@@H]2O[C@H](CO)[C@@H](O)[C@H](O)[C@H]2O)c(-c2ccc(O)c(O)c2)oc2cc(O)cc(O)c12
stdout: 8.3

stdin: # lookup: MRT of COc1cc(C2OCC3C(c4ccc(O[C@@H]5O[C@H](CO)[C@@H](O)[C@H](O)[C@H]5O)c(OC)c4)OCC23)ccc1O (stereo partly drawn) [Pinoresinol-β-D-glucoside]
stdout: 4.1

stdin: Sample O=C(O)[C@]1(O)C[C@@H](O)[C@@H](O)[C@H](O)C1 — what was its MRT?
stdout: 4.5

stdin: Given the compound O=c1c(O)c(-c2ccc(O)c(O)c2)oc2cc(O)cc(O)c12 , what is its reported MRT?
stdout: 7

stdin: Reported MRT, compound O=c1c(O[C@@H]2O[C@H](CO)[C@H](O)[C@H](O)[C@H]2O)c(-c2ccc(O)c(O)c2)oc2cc(O)cc(O)c12 [Hyperoside] : ____
stdout: 6.82

stdin: I am curious: what MRT value has been reported for C[C@@H]1O[C@@H](OC[C@H]2O[C@@H](OCCc3ccc(O)c(O)c3)[C@H](O)[C@@H](O)[C@@H]2OC(=O)/C=C/c2ccc(O)c(O)c2)[C@H](O)[C@H](O)[C@H]1O [Forsythoside A] ?
stdout: 3.75

stdin: Which value of MRT has been reported for O=C(O)/C=C/c1ccc(O)c(O)c1 in the records?
stdout: 5.57

stdin: Fill in: MRT of C[C@@H]1O[C@@H](OC[C@H]2O[C@@H](Oc3c(-c4ccc(O)c(O)c4)oc4cc(O)cc(O)c4c3=O)[C@H](O)[C@@H](O)[C@@H]2O)[C@H](O)[C@H](O)[C@H]1O is ___
stdout: 4.35

stdin: Query: MRT; subject: COc1cc(C[C@H]2C(=O)OC[C@@H]2Cc2ccc(OC)c(OC)c2)ccc1O
stdout: 9.33

* * *

test: Rat in vivo pharmacokinetics study after oral administration of product A, B or C; parameters: species or system Male Sprague-Dawley (SD) rats; concentration or dose not given beside the values; settings: rats, oral; product C versus product A or B
observation.type: AUC 0→t in product C group, increased to % compared to that in product A or B groups
Respond with a number, then the unit of measure.

The cases that follow already have their AUC 0→t in product C group, increased to % compared to that in product A or B groups on record.
>>> result("O=c1c(O[C@@H]2O[C@H](CO)[C@@H](O)[C@H](O)[C@H]2O)c(-c2ccc(O)cc2)oc2cc(O)cc(O)c12")
"145%"
>>> result("O=C(/C=C/c1ccc(O)c(O)c1)O[C@H]1[C@H](O)C[C@](O)(C(=O)O)C[C@H]1O")
"235%"

stdin: Which measured AUC 0→t in product C group, increased to % compared to that in product A or B groups value corresponds to O=c1cc(-c2ccc(O)c(O)c2)oc2cc(O[C@@H]3O[C@H](CO)[C@@H](O)[C@H](O)[C@H]3O)cc(O)c12 [Luteoloside] ?
stdout: 137%

stdin: Any idea what its AUC 0→t in product C group, increased to % compared to that in product A or B groups is? The compound is O=C(/C=C/c1ccc(O)c(O)c1)O[C@@H]1C[C@@](O)(C(=O)O)C[C@@H](O)[C@@H]1O
stdout: 286%

stdin: Would you kindly share the measured AUC 0→t in product C group, increased to % compared to that in product A or B groups for O=C(/C=C/c1ccc(O)c(O)c1)O[C@@H]1C[C@](O)(C(=O)O)C[C@@H](OC(=O)/C=C/c2ccc(O)c(O)c2)[C@H]1O ?
stdout: 162%

* * *

Experiment: Rat in vivo pharmacokinetics study after oral administration of product A, B or C
Parameters: species or system Male Sprague-Dawley (SD) rats
Conditions: male, Sprague-Dawley, rat, plasma, po, 10 mL·kg^−1, rats, oral product C, 10 mL·kg^−1
Description: Product A (extract mixed with FLJ extract and water, (1∶1, v / v )), product B (extract mixed with FF extract and water, (1∶1, v / v )) and product C (extract mixed with FLJ and FF extracts, (1∶1, v / v )) were given to oral administration to rats, respectively. Male SD rats (∼250 g) were kept in an environmentally controlled breeding room (temperature: 20±2°C, relative humidity: 60±5%) for 1 week. […]
Please use condition met for MRT under 8 h and condition not met for everything else, ties included.

>>> class_label("O=c1c(O[C@@H]2O[C@H](CO)[C@H](O)[C@H](O)[C@H]2O)c(-c2ccc(O)c(O)c2)oc2cc(O)cc(O)c12 [Hyperoside]")
"condition met"

stdin: Lab note: MRT threshold 8 h. Does this compound come in strictly under it? O=C(/C=C/c1ccc(O)c(O)c1)O[C@@H]1C[C@](O)(C(=O)O)C[C@@H](OC(=O)/C=C/c2ccc(O)c(O)c2)[C@H]1O
stdout: condition not met

stdin: hey, is MRT for O=C(O)[C@]1(O)C[C@@H](O)[C@@H](O)[C@H](O)C1 lower than 8 h or not?
stdout: condition met

stdin: State whether 8 h exceeds MRT recorded for O=C(/C=C/c1ccc(O)c(O)c1)O[C@H]1[C@H](O)C[C@](O)(C(=O)O)C[C@H]1O .
stdout: condition met

stdin: Say whether its MRT is strictly beneath 8 h. Entry: O=C(/C=C/c1ccc(O)c(O)c1)O[C@@H]1C[C@@](O)(C(=O)O)C[C@@H](O)[C@@H]1O
stdout: condition met

stdin: Field: below-cutoff. Rule: recorded MRT strictly less than 8 h. Subject: O=C(/C=C/c1ccc(O)c(O)c1)O[C@@H]1C[C@](O)(C(=O)O)C[C@@H](O)[C@H]1O
stdout: condition not met

stdin: Is MRT of COc1cc(C[C@H]2C(=O)OC[C@@H]2Cc2ccc(OC)c(OC)c2)ccc1O strictly below 8 h?
stdout: condition not met

stdin: Item O=c1c(O[C@@H]2O[C@H](CO)[C@@H](O)[C@H](O)[C@H]2O)c(-c2ccc(O)cc2)oc2cc(O)cc(O)c12 : MRT beneath 8 h, strictly?
stdout: condition not met

stdin: # check: MRT < 8 h for O=C(C=Cc1ccc(O)c(O)c1)OC1CC(O)(C(=O)O)CC(O)C1OC(=O)C=Cc1ccc(O)c(O)c1 (stereo not drawn)
stdout: condition not met

stdin: Quick check: MRT of O=C(O)/C=C/c1ccc(O)c(O)c1 under 8 h?
stdout: condition met

stdin: Does the reported MRT of O=c1c(-c2ccc(O)cc2)coc2cc(O)cc(O)c12 stay below 8 h?
stdout: condition met

stdin: Bench note: check whether O=c1cc(-c2ccc(O)c(O)c2)oc2cc(O)cc(O)c12 shows MRT below 8 h
stdout: condition met

stdin: Report whether reported MRT is lower than 8 h (strictly) for COc1cc(C2OCC3C(c4ccc(O[C@@H]5O[C@H](CO)[C@@H](O)[C@H](O)[C@H]5O)c(OC)c4)OCC23)ccc1O (stereo partly drawn) [Pinoresinol-β-D-glucoside]
stdout: condition met

stdin: Field: below-cutoff. Rule: recorded MRT strictly less than 8 h. Subject: C[C@@H]1O[C@@H](OC[C@H]2O[C@@H](Oc3c(-c4ccc(O)c(O)c4)oc4cc(O)cc(O)c4c3=O)[C@H](O)[C@@H](O)[C@@H]2O)[C@H](O)[C@H](O)[C@H]1O
stdout: condition met

stdin: Does the reported MRT of C[C@@H]1O[C@@H](OC[C@H]2O[C@@H](OCCc3ccc(O)c(O)c3)[C@H](O)[C@@H](O)[C@@H]2OC(=O)/C=C/c2ccc(O)c(O)c2)[C@H](O)[C@H](O)[C@H]1O [Forsythoside A] stay below 8 h?
stdout: condition met

stdin: is_below(MRT, 8 h) for O=c1c(O[C@@H]2O[C@H](CO)[C@@H](O)[C@H](O)[C@H]2O)c(-c2ccc(O)c(O)c2)oc2cc(O)cc(O)c12 ?
stdout: condition not met

stdin: Lab note: confirm whether the reported MRT for this compound is below 8 h, equality not counting. compound: O=c1c(O)c(-c2ccc(O)c(O)c2)oc2cc(O)cc(O)c12
stdout: condition met

* * *

experiment: Rat in vivo pharmacokinetics study after oral administration of product A, B or C; design: species or system Male Sprague-Dawley (SD) rats; conditions: male, Sprague-Dawley, rat, plasma, po, 10 mL·kg^−1, rats, oral product C, 10 mL·kg^−1; read-out: T 1/2z
# half-life annotations
Entry rule: numbers only, all in min.

Here are 5 compounds together with their reported answers.
>>> readout_number("O=c1cc(-c2ccc(O)c(O)c2)oc2cc(O)cc(O)c12 [Luteolin]")
265
>>> readout_number("O=c1c(-c2ccc(O)cc2)coc2cc(O[C@@H]3O[C@H](CO)[C@@H](O)[C@H](O)[C@H]3O)cc(O)c12 [Genistin]")
552
>>> readout_number("O=c1c(-c2ccc(O)cc2)coc2cc(O)cc(O)c12 [Genistein]")
411
>>> readout_number("O=C(C=Cc1ccc(O)c(O)c1)OC1CC(O)(C(=O)O)CC(O)C1OC(=O)C=Cc1ccc(O)c(O)c1 (centres unmarked) [3,4-dicaffeoylquinic acid]")
409
>>> readout_number("O=c1c(O[C@@H]2O[C@H](CO)[C@H](O)[C@H](O)[C@H]2O)c(-c2ccc(O)c(O)c2)oc2cc(O)cc(O)c12 [Hyperoside]")
423

stdin: Would you mind telling me what half-life value was observed for O=c1c(O)c(-c2ccc(O)c(O)c2)oc2cc(O)cc(O)c12 [Quercetin] ?
stdout: 280

stdin: # lookup: half-life of O=c1c(O[C@@H]2O[C@H](CO)[C@@H](O)[C@H](O)[C@H]2O)c(-c2ccc(O)cc2)oc2cc(O)cc(O)c12 [Astragalin]
stdout: 695

stdin: Fill blank: measured half-life of the compound O=C(/C=C/c1ccc(O)c(O)c1)O[C@@H]1C[C@@](O)(C(=O)O)C[C@@H](O)[C@@H]1O [Neochlorogenic acid] is ____.
stdout: 515

stdin: Find the recorded half-life belonging to O=C(O)[C@]1(O)C[C@@H](O)[C@@H](O)[C@H](O)C1 [Quinic acid] and report it.
stdout: 330

stdin: What does the data say about its half-life? Entry: O=C(/C=C/c1ccc(O)c(O)c1)O[C@@H]1C[C@](O)(C(=O)O)C[C@@H](O)[C@H]1O [Chlorogenic acid]
stdout: 461
